Recorded values, source paper PMC8288134.

Molecular target: EGFR (Homo sapiens, UniProt P00533)
Sequence (P00533 25-1210): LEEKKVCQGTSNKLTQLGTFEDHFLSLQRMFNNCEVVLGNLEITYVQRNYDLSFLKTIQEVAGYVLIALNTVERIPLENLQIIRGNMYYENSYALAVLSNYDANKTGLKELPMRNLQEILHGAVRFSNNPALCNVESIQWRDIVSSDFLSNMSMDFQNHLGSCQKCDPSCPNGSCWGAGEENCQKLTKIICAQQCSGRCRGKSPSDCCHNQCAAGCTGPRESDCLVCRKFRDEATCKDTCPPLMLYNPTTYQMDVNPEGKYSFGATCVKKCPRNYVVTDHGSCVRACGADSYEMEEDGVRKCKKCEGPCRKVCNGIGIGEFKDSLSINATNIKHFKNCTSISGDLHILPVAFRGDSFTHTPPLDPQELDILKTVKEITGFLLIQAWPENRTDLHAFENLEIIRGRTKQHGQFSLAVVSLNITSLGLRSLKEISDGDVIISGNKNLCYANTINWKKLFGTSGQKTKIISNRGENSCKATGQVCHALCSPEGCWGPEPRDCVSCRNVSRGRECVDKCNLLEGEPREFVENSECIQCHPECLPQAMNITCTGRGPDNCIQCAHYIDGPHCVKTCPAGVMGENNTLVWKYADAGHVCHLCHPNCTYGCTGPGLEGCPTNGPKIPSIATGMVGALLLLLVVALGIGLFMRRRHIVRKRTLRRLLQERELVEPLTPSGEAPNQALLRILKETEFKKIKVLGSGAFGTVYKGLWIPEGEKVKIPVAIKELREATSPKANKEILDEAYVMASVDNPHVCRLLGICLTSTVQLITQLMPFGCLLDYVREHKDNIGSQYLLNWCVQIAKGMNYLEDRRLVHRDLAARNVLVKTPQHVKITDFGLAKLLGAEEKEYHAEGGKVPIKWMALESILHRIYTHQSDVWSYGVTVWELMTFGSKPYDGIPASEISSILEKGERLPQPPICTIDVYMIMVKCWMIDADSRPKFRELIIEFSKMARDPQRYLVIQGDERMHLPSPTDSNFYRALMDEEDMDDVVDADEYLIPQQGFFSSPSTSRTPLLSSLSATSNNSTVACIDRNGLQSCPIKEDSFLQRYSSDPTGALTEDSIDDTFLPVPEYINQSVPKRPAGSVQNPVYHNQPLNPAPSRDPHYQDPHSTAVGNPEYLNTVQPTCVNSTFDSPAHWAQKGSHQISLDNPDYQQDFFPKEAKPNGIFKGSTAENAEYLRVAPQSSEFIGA
experimentalEndpoint: IC50
Number first, unit second: that is the form wanted.

Log: EGFR (Homo sapiens, UniProt P00533), compound CS(=O)(=O)c1ccc(C(=O)N/N=C/c2ccccc2O)cc1 , IC50 = 200 nM

Log: EGFR (Homo sapiens, UniProt P00533), compound CCN(CC)c1ccc(/C=N/NC(=O)c2ccc(S(C)(=O)=O)cc2)c(O)c1 , IC50 = 190 nM

Log: EGFR (Homo sapiens, UniProt P00533), compound Cc1ccc(C=NNC(=O)c2ccc(S(C)(=O)=O)cc2)cc1 , IC50 = 770 nM

Log: EGFR (Homo sapiens, UniProt P00533), compound CS(=O)(=O)c1ccc(C(=O)NN=Cc2cccc3ccccc23)cc1 , IC50 = 260 nM

----------
System: SN12C
Test: NCI antitumor screen (SRB)
Assay type: cell-based
Conditions: Homo sapiens, one dose 10 µM, read-out: Growth inhibition percentage (GI%)
We begin with a simple list: items and their reported inhibition at 10 µM.
The reply should contain only the number, in %.

These recorded examples may help you get a feel for the data.
>>> df
                                   molecule  reportedvalue
0  O=c1[nH]cc(F)c(=O)[nH]1 [Compound 5-Fu, 5-fluorouracil, reference compound]             46
1  CS(=O)(=O)c1ccc(C(=O)NN=Cc2cccc3ccccc23)cc1           12.6
2  CCN(CC)c1ccc(/C=N/NC(=O)c2ccc(S(C)(=O)=O)cc2)c(O)c1           68.8

The record that follows has no inhibition at 10 µM shown yet.
Notebook: CS(=O)(=O)c1ccc(C(=O)N/N=C/c2ccccc2O)cc1 , inhibition at 10 µM read as 41.4

----------
Target: COX-2 (Ovis aries)
Sequence (P79208 17-603): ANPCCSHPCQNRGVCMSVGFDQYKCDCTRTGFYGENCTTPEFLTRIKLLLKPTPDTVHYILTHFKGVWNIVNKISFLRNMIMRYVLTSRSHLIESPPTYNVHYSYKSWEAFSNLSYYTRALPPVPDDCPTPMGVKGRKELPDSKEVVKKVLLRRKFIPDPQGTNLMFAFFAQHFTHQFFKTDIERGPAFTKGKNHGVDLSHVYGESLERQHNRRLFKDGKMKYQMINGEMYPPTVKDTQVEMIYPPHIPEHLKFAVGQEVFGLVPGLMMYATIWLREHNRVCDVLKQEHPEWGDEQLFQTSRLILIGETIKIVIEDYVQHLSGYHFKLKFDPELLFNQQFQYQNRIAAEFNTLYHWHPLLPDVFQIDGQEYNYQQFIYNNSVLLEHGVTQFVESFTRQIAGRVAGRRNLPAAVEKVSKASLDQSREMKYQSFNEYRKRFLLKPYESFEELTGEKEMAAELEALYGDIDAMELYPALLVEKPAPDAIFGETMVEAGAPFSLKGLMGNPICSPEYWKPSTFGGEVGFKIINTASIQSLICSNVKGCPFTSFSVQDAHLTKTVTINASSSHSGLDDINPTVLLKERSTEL
We begin with a simple list: items and their reported pIC50.
The read-out pIC50 is expressed as -log10 of concentration in moles per litre.

These recorded examples may help you get a feel for the data.
>>> df
                                   compound  reportedvalue
0  CS(=O)(=O)c1ccc(C(=O)N/N=C/c2ccccc2O)cc1 [Compound 16]           4.08
1  CCN(CC)c1ccc(/C=N/NC(=O)c2ccc(S(C)(=O)=O)cc2)c(O)c1 [Compound 20]           5.16

Notebook: Cc1ccc(C=NNC(=O)c2ccc(S(C)(=O)=O)cc2)cc1 [Compound 9] , pIC50 read as 5.53

Notebook: CS(=O)(=O)c1ccc(C(=O)NN=Cc2cccc3ccccc23)cc1 [Compound 6] , pIC50 read as 4.44
